A collection of compounds and their measured composite z-score
# System: Sam68 (KHDRBS1)
# Method Summary: compounds binding KHDRBS1 protein – biochemical, small-molecule microarray, 635 nm fluorescence, primary screen (AID 1125);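 further: score merges 667 nm channel intensity with signal to noise over triplicate slides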
# Conditions: higher = more signal
# output: bare number, no unit

Reference set, count: 6
Compound	Metric Name	Result Value
Cc1ccc(S[C@]2(C(=O)NCC(C)C)CC(=O)N(C3CCCCC3)[C@@H]2c2ccc(CO)cc2I)cc1	composite z-score	1.28
C[C@H]1NC(=O)C([C@@H](C)OCc2ccccc2)NC(=O)[C@@]23C(=O)N[C@@H](Cc4ccccc4)C2[C@H](C)[C@@]2(C)O[C@H]2C3/C=C/CC/C=C/CNC1=O (stereo partly drawn)	composite z-score	-0.389
CCCC=C(CCC)[C@@H](NS(=O)(=O)CC)c1ccccc1	composite z-score	1.29
CC(C)=CCCC(C)=CC(O)C1C=CC2C(=O)N(c3ccccc3)C(=O)C2N1Nc1ccc([N+](=O)[O-])cc1 (stereo not drawn)	composite z-score	1.35
COCCOC(=O)N1C(=O)[C@@]2(c3cc(C#CCCO)ccc31)[C@H](C(=O)N1CCc3cc(OC)c(OC)cc3C1)[C@H]1C(=O)O[C@H](c3ccccc3)[C@H](c3ccccc3)N1[C@@H]2c1ccc(OCCO)cc1	composite z-score	1.3
C=CCNC(=O)[C@H]1[C@@H]2C(=O)O[C@@H](c3ccccc3)[C@@H](c3ccccc3)N2[C@@H](c2ccc(O)cc2)[C@]12C(=O)N(C(=O)OCCOC)c1ccc(C#CC3(O)CCCCCC3)cc12	composite z-score	1.23

We now examine a further compound.
Sam68 (KHDRBS1) data for C=C(/C(=C/C[C@@H](OC(C)=O)c1ccccc1OCCO)c1cnc2ccccc2c1)C(C)C ; its composite z-score: 0.778

* * *

Each entry below lists one item and its recorded z-score value.
# Method Summary: calcein-AM signal in unstimulated myeloma cells – cell-based, calcein-AM fluorescence, 48 h, PK04 Diversity Set, profiling panel (AID 1166);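 further: cells grown under basal conditions without added stimulus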
# Conditions: RPMI8226 myeloma viability, higher = more signal
Respond numerically, and do not add a unit to the figure.

>>> df
                  compound_structure_string  result_value
0  CC(C)CNC(=O)[C@@]1(c2ccc([N+](=O)[O-])cc2)CC(=O)N(C(C)C)[C@@H]1c1ccc(CO)cc1         0.399
1                       C#CCNS(=O)(=O)N(C)C        -0.227
2  CN(C)C(=O)[C@@]1(CCC(=O)OC(C)(C)C)N=C(c2ccc(OCCCO)cc2)O[C@H]1c1ccccc1N=[N+]=[N-]        0.0691

The recorded z-score for entry NCCCCCCNC(=O)[C@H]1C[C@H]2C(=O)N3CCC[C@H]3C(=O)N2[C@H]1c1ccc(O)cc1 equals -0.707

Memo: O=C(N1CCOCC1)[C@@]1(CCS(=O)(=O)c2ccccc2)COC(c2ccc(OCCCO)cc2)=N1 , reported z-score: 0.108

What the record says about [N-]=[N+]=Nc1ccccc1[C@H]1OC(c2ccc(OCCCO)cc2)=N[C@@]1(Cc1ccccc1)C(=O)NCc1ccccc1 : z-score is -3.84

# z-score of C=C(/C(=C/C[C@@H](OC(C)=O)c1ccccc1OCCO)c1cnc2ccccc2c1)C(C)C = -1.45

Form field z-score, entry COc1ccccc1CN1C(=O)c2ccccc2[C@](Cc2ccccc2I)(C(=O)NCCN2CCOCC2)[C@@H]1c1ccc(CO)cc1 : -2.74

* * *

# Method Summary: calcein-AM signal in unstimulated myeloma cells – cell-based, calcein-AM fluorescence, 48 h, PK04 Diversity Set, profiling panel (AID 1166);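 further: cells grown under basal conditions without added stimulus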
# Conditions: RPMI8226 myeloma viability, higher = more signal
Measured z-score values are reported for all entries that follow.
Number, no unit, nothing else.

Observe how each entry below is paired with its result.
Molecule	Result Value
O=C1OCCC=C[C@H]2OC34C=CCN(Cn5nnc6ccccc65)C(=O)[C@H]3N(CCCCCO)C(=O)[C@@H]4C12 (stereo partly drawn)	0.723
CCCCC(=C=CC[C@H](O)c1ccccc1OCCO)C[C@H](O)c1ccccn1	-0.327
O=C1OCC=C[C@H]2OC34C=CCN(CCN5CCOCC5)C(=O)[C@H]3N(CCCCCO)C(=O)[C@@H]4[C@@H]12 (stereo partly drawn)	0.182
C=C(/C(=C/C[C@@H](OC(=O)c1ccncc1)c1ccccc1OCCO)c1cnc2ccccc2c1)C(C)C	-2.45
CCCN1C(=O)[C@@]2(Cc3ccccc3)N=C(c3ccc(OCCCO)cc3)O[C@H]2c2ccccc21	-4.32

Entry under test: C[N+](C)(C)CCCCCCNC(=O)[C@@H]1C[C@@H]2C(=O)NCC(=O)N2[C@@H]1c1cccc(OCCO)c1 . Its z-score was 0.422

The measured z-score associated with C[C@H]1NC(=O)C([C@@H](C)OCc2ccccc2)NC(=O)[C@@]23C(=O)N[C@@H](Cc4ccccc4)C2[C@H](C)[C@@]2(C)O[C@H]2C3/C=C/CC/C=C/CNC1=O (stereo partly drawn) reads -1.2

* * *

# Test system: Inhibin beta A chain (activin A)
# Method Summary: small molecules binding activin A – biochemical, small-molecule microarray, 635 nm fluorescence scan, primary screen (AID 1107);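 further: mouse activin A protein probed at 4.33 µg/mL on printed slides; score merges bound-protein fluorescence near 667 nm with spot signal-to-noise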
# Conditions: INHBA, higher = more signal
As shown below, each of these molecules has a reported composite z-score value.
Write the value as a bare number.

                  compound_structure_string  result_value
0  O=C(CS)NCCCCCNC(=O)[C@@H]1C[C@@H]2C(=O)N3CCC[C@H]3C(=O)N2[C@@H]1c1ccc(O)cc1        0.0603
1  CCCC=C(CCC)[C@@H](NS(=O)(=O)c1ccccc1)c1ccc(C(F)(F)F)cc1       -0.0447
2  COCCCNC(=O)[C@@H]1c2ccccc2C(=O)N(Cc2cc(F)cc(C(F)(F)F)c2)[C@H]1c1ccc(CO)cc1        -0.104

Kindly review the next molecule as well.
Memo: [N-]=[N+]=NCc1ccccc1C[C@]1(C(=O)NCCN2CCOCC2)N=C(c2ccc(OCCCO)cc2)O[C@H]1c1ccccc1 , reported composite z-score: 0.527

* * *

# Assayed System: Concanavalin-A (Canavalia ensiformis) (UniProt P02866)
# Sequence (P02866 whole entry, looked up): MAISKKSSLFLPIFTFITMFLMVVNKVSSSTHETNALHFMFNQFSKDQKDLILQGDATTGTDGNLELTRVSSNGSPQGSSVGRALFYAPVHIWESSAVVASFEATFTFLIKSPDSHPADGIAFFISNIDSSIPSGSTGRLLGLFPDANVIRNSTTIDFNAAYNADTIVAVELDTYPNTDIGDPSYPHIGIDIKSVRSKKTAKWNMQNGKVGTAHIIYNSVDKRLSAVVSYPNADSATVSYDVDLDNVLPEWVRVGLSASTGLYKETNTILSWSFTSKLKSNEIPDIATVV
# Method Summary: compounds binding concanavalin A lectin – biochemical, small-molecule microarray, Alexa647 label, 635 nm, artefact control for SMM control protein annotation, primary screen (AID 1127);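 further: z combines 667 nm emission intensity with signal-to-noise across three replicate slides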
# Conditions: ConA-A647 binding fluorescence, higher = more signal
Reported composite z-score values follow for various compounds
Please give only the number in your answer, with no unit.

The examples below pair each entry with its known result.
Compound	Metric Name	Result Value
C=CC[C@]1(C(=O)N2CCOCC2)N=C(c2ccc(OCCCO)cc2)O[C@H]1c1ccccc1CN=[N+]=[N-]	composite z-score	1.15
COc1ccc(C(=O)Nc2ccc3c(c2)[C@]2(O[C@@H](CCO)[C@H]([Si](C)(C)c4ccc(OC)cc4)[C@H]2C)C(=O)N3Cc2ccccc2)cc1	composite z-score	0.908
CCOC(=O)C[C@H]1[C@H](OC(=O)c2ccc(C(=O)c3ccccc3)cc2)[C@@H](NC(=O)C2CCCCC2)c2cc(OCCCO)ccc2N1C(=O)Cc1ccc(OC)cc1	composite z-score	0.312

composite z-score for CCN(CC)c1ccc(N2CC=CC34O[C@@H]5/C=C\CCCOC(=O)C5[C@H]3C(=O)N(CCCCCCO)[C@@H]4C2=O)cc1 (some centres not stated) is -0.642

The compound COCCCNC(=O)[C@]1(Cc2ccccc2)N=C(c2ccc(OCCCO)cc2)O[C@@H]1c1ccccc1N=[N+]=[N-] showed composite z-score equal to 1.1

composite z-score measured on O=C1O[C@@H](c2ccccc2)[C@@H](c2ccccc2)N2[C@@H](c3ccc(O)cc3)[C@]3(C(=O)Nc4ccc(C#CC5=CCCCC5)cc43)[C@@H](C(=O)Nc3nc4ccccc4s3)[C@H]12 = 1.1

* * *

# System: XIP peptide (Xip251-270)
# Method Summary: compounds binding XIP fragment 251-270 – biochemical, small-molecule microarray, fluorescence 635/667 nm, 0.5 µg/mL protein, primary screen (AID 1183)
# Conditions: fluorescence 635 nm, higher = more signal
The following compounds are shown together with reported composite z-score values.
Answer field: number only, no words.

Compound	composite z-score
CC(C)NC(=O)[C@@H]1c2ccccc2C(=O)N(Cc2cc(C(F)(F)F)cc(C(F)(F)F)c2)[C@H]1c1ccc(CO)cc1	0.55
CCCC[C@H]1OB(O)C[C@H]2C1=C(COc1ccccc1)Cn1c(=O)n(-c3ccccc3)c(=O)n12	0.286
O=C1O[C@@H](c2ccccc2)[C@@H](c2ccccc2)N2[C@@H](c3ccc(O)cc3)[C@]3(C(=O)Nc4ccc(C#CC5=CCCCC5)cc43)[C@@H](C(=O)Nc3nc4ccccc4s3)[C@H]12	0.708
C=CCC(OC(C)=O)[C@@H]1[C@@H](N(Cc2ccc(-c3cccc(C(F)(F)F)c3)o2)C(=O)c2cccc3ccccc23)c2cc(OCCCO)ccc2N1C(=O)c1ccc(-c2ccccc2)cc1 (stereo partly drawn)	-0.131
C=CCOC(=O)[C@@H]1[C@H]2C(=O)O[C@H](c3ccccc3)[C@H](c3ccccc3)N2[C@H](c2ccc(OCCOC(=O)[C@@H]3C[C@@H]4C(=O)N[C@@H](CCCCNC(C)=O)C(=O)N4[C@@H]3c3ccc(O)cc3)cc2)[C@@]12C(=O)Nc1ccc(I)cc12	0.794

Readout composite z-score for N#Cc1ccc(NN2C(C(O)c3ccccc3)C=CC3C(=O)N(c4ccccc4)C(=O)C32)cc1 (stereo not drawn) , test system XIP peptide (Xip251-270), was 0.026

The reported composite z-score value, XIP peptide (Xip251-270), for OCCCC1=CC(c2cccs2)N(Cc2cccc(OC(F)(F)F)c2)CC1 (stereo not drawn) reads 0.754

Tested system XIP peptide (Xip251-270); composite z-score recorded for CC(C)C[C@@H]1NC(=O)[C@@]23C(=O)N[C@@H](Cc4ccccc4)C2[C@H](C)[C@@]2(C)O[C@H]2C3/C=C/C/C=C\CNC(=O)[C@@H]2CCCN2C1=O (stereo partly drawn) was -0.791

composite z-score value, target or system XIP peptide (Xip251-270), for O=C1N(CCS(=O)(=O)c2ccccc2)c2ccccc2[C@H]2OC(c3ccc(OCCCO)cc3)=N[C@@]12CCS(=O)(=O)c1ccccc1 : 0.776

XIP peptide (Xip251-270) data for COCCCNC(=O)[C@]1(Cc2ccccc2CN=[N+]=[N-])N=C(c2ccc(OCCCO)cc2)O[C@@H]1c1ccccc1CN=[N+]=[N-] ; its composite z-score: 0.744

Sample C[C@H]1NC(=O)C([C@@H](C)OCc2ccccc2)NC(=O)[C@@]23C(=O)N[C@@H](Cc4ccccc4)C2[C@H](C)[C@@]2(C)O[C@H]2C3/C=C/CC/C=C/CNC1=O (stereo partly drawn) , system: XIP peptide (Xip251-270). Its composite z-score is -0.764

XIP peptide (Xip251-270) assay, compound COc1ccc([Si](C)(C)[C@@H]2[C@@H](CC(=O)N3Cc4ccccc4C[C@H]3CO)O[C@]3(C(=O)N(Cc4cccc(N5CCCCC5=O)c4)c4ccccc43)[C@H]2C)cc1 , recorded composite z-score = 0.737

Hey, XIP peptide (Xip251-270) data for CCCCC=C[C@@H](NC(=O)CCc1ccccc1)c1ccccc1 : composite z-score came out at 0.518

These data points were gathered from PubChem BioAssay.
